- Species on record: Rattus norvegicus
- assayNotes: DrugMatrix - Regimen: Daily Repeat
- Assay type: toxicity, organism-based, Sprague-Dawley
- Set-up: regimen Daily Repeat, gender Male, age 6-8 weeks
- measurementSetup: in vivo, po, 0 mg/kg, 120 h, tissue Plasma, route oral GAVAGE, dose level Control, time 5 day, vehicle .5 % CMC
propertyLabel: CHOLESTEROL

compound	observed
COC1=C(OC)C(=O)C(CCCCCCCCCCO)=C(C)C1=O	71.33 mg/dL
O=C1CN=C(c2ccccc2Cl)c2cc([N+](=O)[O-])ccc2N1	71.33 mg/dL
CN(C/C=C/C#CC(C)(C)C)Cc1cccc2ccccc12	74.67 mg/dL
NC1CCN(c2nc3c(cc2F)c(=O)c(C(=O)O)cn3-c2ccc(F)cc2F)C1 (stereo not given)	74.67 mg/dL
COc1cc2nc(N3CCN(C(=O)c4ccco4)CC3)nc(N)c2cc1OC	72.83 mg/dL
